Test: Plasma pharmacokinetics in KM12-Luc ITC tumor-bearing mice
Type: in vivo, Balb/c nude mice
Settings: Balb/c nude, mouse, in vivo, po, 30 mg/kg
Endpoint name: AUC(0-t)

stdin: # query: AUC(0-t) of entry CN1CCN(c2ccc(C(=O)Nc3n[nH]c4ccc(Cc5cc(F)cc(F)c5)cc34)c(NC3CCOCC3)c2)CC1 [Entrectinib, entrectinib]
stdout: 24.5 to 54.8 µM·h

====

Molecular target: mouse P-gp (Mus musculus)
Sequence (P21447 whole entry): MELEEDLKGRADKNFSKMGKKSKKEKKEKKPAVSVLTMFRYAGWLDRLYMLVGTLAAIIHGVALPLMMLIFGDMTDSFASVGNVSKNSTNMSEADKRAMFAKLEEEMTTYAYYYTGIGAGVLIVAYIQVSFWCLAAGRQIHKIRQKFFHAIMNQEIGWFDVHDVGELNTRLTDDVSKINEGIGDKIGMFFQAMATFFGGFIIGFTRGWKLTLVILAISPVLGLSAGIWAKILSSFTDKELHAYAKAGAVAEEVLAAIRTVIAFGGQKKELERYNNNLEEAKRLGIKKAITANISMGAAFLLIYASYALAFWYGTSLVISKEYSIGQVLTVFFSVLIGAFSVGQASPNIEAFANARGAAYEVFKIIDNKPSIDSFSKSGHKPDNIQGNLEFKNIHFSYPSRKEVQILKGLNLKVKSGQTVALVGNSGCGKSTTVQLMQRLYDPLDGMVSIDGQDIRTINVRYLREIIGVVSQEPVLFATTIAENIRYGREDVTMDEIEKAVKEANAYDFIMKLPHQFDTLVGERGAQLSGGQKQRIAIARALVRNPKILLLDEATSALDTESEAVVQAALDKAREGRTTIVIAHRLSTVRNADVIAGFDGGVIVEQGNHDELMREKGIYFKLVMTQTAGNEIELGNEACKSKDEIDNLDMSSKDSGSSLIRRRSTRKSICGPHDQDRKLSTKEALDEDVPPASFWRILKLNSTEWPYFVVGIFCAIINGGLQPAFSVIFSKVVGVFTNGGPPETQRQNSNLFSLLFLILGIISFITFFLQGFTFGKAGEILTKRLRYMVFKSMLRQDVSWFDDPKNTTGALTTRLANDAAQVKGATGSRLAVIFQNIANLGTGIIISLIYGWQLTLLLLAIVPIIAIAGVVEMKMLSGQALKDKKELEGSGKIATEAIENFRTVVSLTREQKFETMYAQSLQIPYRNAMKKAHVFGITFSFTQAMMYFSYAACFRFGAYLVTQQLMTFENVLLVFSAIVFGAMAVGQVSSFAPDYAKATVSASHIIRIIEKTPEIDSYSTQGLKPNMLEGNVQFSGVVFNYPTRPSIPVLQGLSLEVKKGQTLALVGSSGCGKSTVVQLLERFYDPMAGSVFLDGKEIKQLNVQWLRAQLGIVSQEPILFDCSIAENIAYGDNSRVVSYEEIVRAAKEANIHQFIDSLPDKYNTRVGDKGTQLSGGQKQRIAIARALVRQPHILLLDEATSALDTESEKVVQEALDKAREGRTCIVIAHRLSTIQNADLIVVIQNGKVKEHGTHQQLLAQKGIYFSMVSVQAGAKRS
Assay type: in vitro ADME
Details: LLC-PK1
Each entry below lists one item and its recorded Papp B→A at 3.5 h, 1 µM value.
Answer with a number only, understood to be in ×10⁻⁶ cm/s.

Smiles code | Unit spec | Papp B→A at 3.5 h, 1 µM
C[C@@H](Oc1cc(-c2cnn(C3CCNCC3)c2)cnc1N)c1c(Cl)ccc(F)c1Cl | ×10⁻⁶ cm/s | 34.4

stdin: # query: Papp B→A at 3.5 h, 1 µM of entry "O=C(Nc1cnn2ccc(N3CCC[C@@H]3c3cc(F)ccc3F)nc12)N1CC[C@H](O)C1"
stdout: 16.1

stdin: # query: Papp B→A at 3.5 h, 1 µM of entry "CN1CCN(c2ccc(C(=O)Nc3n[nH]c4ccc(Cc5cc(F)cc(F)c5)cc34)c(NC3CCOCC3)c2)CC1"
stdout: 25.5

stdin: # query: Papp B→A at 3.5 h, 1 µM of entry "C[C@H]1O[C@@H](O[C@H]2[C@@H](O)C[C@H](O[C@H]3[C@@H](O)C[C@H](O[C@H]4CC[C@@]5(C)[C@H](CC[C@@H]6[C@@H]5C[C@@H](O)[C@]5(C)[C@@H](C7=CC(=O)OC7)CC[C@]65O)C4)O[C@@H]3C)O[C@@H]2C)C[C@H](O)[C@@H]1O"
stdout: 12.5
